Conditions: 328.15 K, Ring tensiometer

# compound, unitDescriptor, surface tension liquid-gas
measured = [
    ("CCCCCCO", "mN/m", 22.33),
    ("CCCCO", "mN/m", 20.56),
    ("CCCO", "mN/m", 20.18),
    ("C[S+](C)[O-] [dimethyl sulfoxide]", "mN/m", 38.72),
]

###

Conditions: 318.15 K, Ring tensiometer
readoutName: surface tension liquid-gas (mN/m)

# compound, unitDescriptor, endpointValue
measured = [
    ("CCCO", "mN/m", 20.88),
    ("C[S+](C)[O-] [dimethyl sulfoxide]", "mN/m", 39.99),
    ("CCCCO", "mN/m", 21.64),
    ("CCCCCCO", "mN/m", 23.02),
]

###

surface tension liquid-gas reference
Details: 288.15 K, Ring tensiometer

# compound, surface tension liquid-gas, mN/m
rows = [
    ("CCCCO [butan-1-ol]", 24.28),
    ("C[S+](C)[O-] [dimethyl sulfoxide]", 43.68),
    ("CCCO [propan-1-ol]", 23.24),
    ("CCCCCCO [hexan-1-ol]", 25.38),
]

###

surface tension liquid-gas reference
Settings: 298.15 K, Ring tensiometer
readoutName: surface tension liquid-gas (mN/m)

# compound, unitDescriptor, endpointValue
data = [
    ("CCCCO", "mN/m", 23.48),
    ("C[S+](C)[O-] [dimethyl sulfoxide]", "mN/m", 42.18),
    ("CCCCCCO", "mN/m", 24.51),
    ("CCCO", "mN/m", 22.5),
]

###

surface tension liquid-gas reference
Settings: 308.15 K, Ring tensiometer
readoutName: surface tension liquid-gas (mN/m)

# compound, endpointValue
data = [
    ("CCCCO", 22.4),
    ("CCCCCCO", 23.86),
    ("C[S+](C)[O-] [dimethyl sulfoxide]", 41.11),
    ("CCCO", 21.39),
]
